Reference source for all entries: patent US20240141072A1

# tgt: T1, cynomolgus DLL3 (cynomolgus, UniProt A0A2K5WSR1 27-490)
# T1 construct: also called cyDLL3
# T1 sequence: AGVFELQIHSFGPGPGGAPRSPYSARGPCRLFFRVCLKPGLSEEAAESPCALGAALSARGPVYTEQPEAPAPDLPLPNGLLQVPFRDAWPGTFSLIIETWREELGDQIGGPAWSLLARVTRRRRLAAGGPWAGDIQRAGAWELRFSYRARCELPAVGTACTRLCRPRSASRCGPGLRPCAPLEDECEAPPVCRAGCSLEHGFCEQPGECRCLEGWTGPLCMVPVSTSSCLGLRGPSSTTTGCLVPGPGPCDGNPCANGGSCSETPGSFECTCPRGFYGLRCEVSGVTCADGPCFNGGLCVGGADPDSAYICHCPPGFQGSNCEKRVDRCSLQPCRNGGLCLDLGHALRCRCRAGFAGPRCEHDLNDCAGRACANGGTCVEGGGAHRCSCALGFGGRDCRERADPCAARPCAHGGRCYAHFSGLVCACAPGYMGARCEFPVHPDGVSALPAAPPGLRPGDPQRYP
# test: Octet BLI, single 60 nM
pKd: −log10 of the molar value.
measurementLabel: pKd

binder	measurementLabel	val
2E02 anti-DLL3 trispecific protein (other, not shown: linker 1808, anti-albumin sdAb, linker 1808, anti-CD3 fragment, His6 1819) EVQLVESGGGLVQPGGSLTLSCVASGSTSAINAMGWYRRAPGKQRELVAGISSDGSKVYVDSVKGRFTISRDNAKNSVYLQMNSLRAEDTAVYYCYYFRTVSGSSQRYWGQGTLVTVSS	pKd	8.47
3A011 anti-DLL3 trispecific protein (other, not shown: linker 1808, anti-albumin sdAb, linker 1808, anti-CD3 fragment, His6 1819) EVQLVESGGGLVQPGGSLTLSCAASGSSVSFLSLAWYRQAPGKKRELVAGISTDGSTDYIDSVKGRFTISRDNAKNSVYLQMNSLRAEDTAVYYCYAYRWRTRYTYWGQGTLVTVSS	pKd	8.06
